Data origin, for the record: ChEMBL document CHEMBL4020728

Biological target: Carbonic anhydrase 9 (Homo sapiens, UniProt Q16790)
# Lookup of reported Ki keyed by entry
Report only the number, with the unit nM understood.

Use the examples below as a reference point.
CC#CCNS(=O)(=O)c1ccccc1C(=O)O 250
CCCCCNS(=O)(=O)c1ccccc1C(=O)O 392
CC#CCN1C(=O)c2ccccc2S1(=O)=O 563
CCCNS(=O)(=O)c1ccccc1C(=O)O 481
O=C1c2ccccc2S(=O)(=O)N1CCc1ccccc1 76.1
CCCCN1C(=O)c2ccccc2S1(=O)=O 164

With those in mind, consider the next molecule.
QUERY: State the recorded Ki for this entry: O=C1c2ccccc2S(=O)(=O)N1Cc1ccccc1
RESULT: 89.2

###

Biological target: Carbonic anhydrase 12 (Homo sapiens)
Sequence (O43570 whole entry): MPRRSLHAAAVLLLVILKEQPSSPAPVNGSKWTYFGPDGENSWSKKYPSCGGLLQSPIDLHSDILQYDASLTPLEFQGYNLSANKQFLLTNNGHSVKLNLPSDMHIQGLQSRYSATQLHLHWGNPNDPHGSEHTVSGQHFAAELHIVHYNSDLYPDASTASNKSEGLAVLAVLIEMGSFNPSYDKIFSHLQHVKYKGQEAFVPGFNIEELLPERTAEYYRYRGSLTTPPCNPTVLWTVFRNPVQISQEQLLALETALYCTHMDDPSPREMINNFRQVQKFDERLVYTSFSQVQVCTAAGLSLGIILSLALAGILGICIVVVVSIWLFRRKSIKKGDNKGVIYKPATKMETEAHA
Test: Inhibition of recombinant human carbonic anhydrase-12 assessed as reduction in CO2 hydration preincubated for 10 mins measured for 5 to 10 secs by stopped flow assay
MEASURED_PROPERTY: Ki (µM)
Report only the number, with the unit µM understood.

O=C1c2ccccc2S(=O)(=O)N1CCc1ccccc1 0.0104

With those in mind, consider the next compound.
QUERY: Entry CCCCCN1C(=O)c2ccccc2S1(=O)=O , system Carbonic anhydrase 12 (Homo sapiens): what Ki was measured?
RESULT: 0.034

###

Target: Carbonic anhydrase 1 (Homo sapiens, UniProt P00915)
Sequence (P00915 whole entry): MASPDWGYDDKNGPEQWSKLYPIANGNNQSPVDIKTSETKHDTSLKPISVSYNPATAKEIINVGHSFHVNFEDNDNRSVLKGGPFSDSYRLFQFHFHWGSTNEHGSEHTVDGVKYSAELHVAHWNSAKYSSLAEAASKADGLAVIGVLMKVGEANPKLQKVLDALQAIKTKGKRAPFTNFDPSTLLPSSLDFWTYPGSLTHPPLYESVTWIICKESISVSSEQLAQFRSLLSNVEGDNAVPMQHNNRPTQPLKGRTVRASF
Test: Inhibition of recombinant human carbonic anhydrase-1 assessed as reduction in CO2 hydration preincubated for 10 mins measured for 5 to 10 secs by stopped flow assay
MEASURED_PROPERTY: Ki

Use the examples below as a reference point.
CC#CCNS(=O)(=O)c1ccccc1C(=O)O > 10 µM
CC#CCN1C(=O)c2ccccc2S1(=O)=O > 10 µM

QUERY: State the recorded Ki for this entry: CCCCCNS(=O)(=O)c1ccccc1C(=O)O
RESULT: > 10 µM

QUERY: One more compound: O=C1c2ccccc2S(=O)(=O)N1CCc1ccccc1
RESULT: > 10 µM

QUERY: One more compound: CCCCN1C(=O)c2ccccc2S1(=O)=O
RESULT: > 10 µM

QUERY: One more compound: CCCN1C(=O)c2ccccc2S1(=O)=O
RESULT: > 10 µM

###

Target: Carbonic anhydrase 1 (Homo sapiens, UniProt P00915)
Experiment: Inhibition of recombinant human carbonic anhydrase-1 assessed as reduction in CO2 hydration preincubated for 10 mins measured for 5 to 10 secs by stopped flow assay
pKi: −log10 of the molar value.
MEASURED_PROPERTY: pKi

CCN1C(=O)c2ccccc2S1(=O)=O < 5.00
O=C(O)c1ccccc1S(=O)(=O)NCc1ccc(Br)cc1 < 5.00
CCCCNS(=O)(=O)c1ccccc1C(=O)O < 5.00

QUERY: State the recorded pKi for this entry: CCCCCN1C(=O)c2ccccc2S1(=O)=O
RESULT: < 5.00

QUERY: One more compound: CCCNS(=O)(=O)c1ccccc1C(=O)O
RESULT: < 5.00

QUERY: One more compound: O=C(O)c1ccccc1S(=O)(=O)NCc1ccccc1
RESULT: < 5.00

QUERY: One more compound: O=C1c2ccccc2S(=O)(=O)N1Cc1ccccc1
RESULT: < 5.00
